assay: chemical genetic growth profiling, strain panel (AID 1159580);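 note: tested at 20 µM; growth read once vehicle control cultures reached saturation at 30 °C; 1 = growth at the plate median or of vehicle wells; lower values mean less growth of the strain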; details: S. cerevisiae deletion strains, growth OD, locus YGR078C, strain PAC10
Among all 5,500 compounds or so, about 2,000 (36%) were called active. Roughly 18% stayed inconclusive and do not appear here. Cut-off read from the data, not from the text of the source: active = normalized growth mostly below about 0.91 (no sharp cut-off); inconclusive = no clear call, values can overlap the other calls; inactive = mostly above about 0.92. This is one part of the list.
Labels: 1 (yes) for active, 0 (no) for inactive

[
  {
    "Compound": "C[C@]12CCC(=O)C=C1C=CC1C2CC[C@@]2(C)C1CC[C@@]2(O)CCC(=O)O (some centres undefined)",
    "Group": "0 (no)"
  },
  {
    "Compound": "O=C(CSc1ccc(Cl)cc1)Nc1ccc(F)cc1",
    "Group": "1 (yes)"
  },
  {
    "Compound": "Oc1ccc2c(c1)O[C@H](c1ccc(O)c(O)c1)[C@@H](O)C2",
    "Group": "0 (no)"
  },
  {
    "Compound": "COc1cc(C(O)CO)ccc1O (centres undefined)",
    "Group": "0 (no)"
  },
  {
    "Compound": "CC(C)(Sc1ccc(CCN(CCCCC2CCCCC2)C(=O)NC2CCCCC2)cc1)C(=O)O",
    "Group": "0 (no)"
  },
  {
    "Compound": "Oc1cc(O)c2c(c1)OC(c1cc(O)c(O)c(O)c1)C(O)C2c1c(O)cc(O)c2c1OC(c1cc(O)c(O)c(O)c1)C(O)C2c1c(O)cc(O)c2c1OC(c1cc(O)c(O)c(O)c1)C(O)C2 (centres undefined)",
    "Group": "0 (no)"
  },
  {
    "Compound": "CC(=O)S[C@@H]1CC2=CC(=O)CC[C@]2(C)[C@H]2CC[C@@]3(C)[C@@H](CC[C@@]34CCC(=O)O4)C12 (some centres undefined)",
    "Group": "0 (no)"
  },
  {
    "Compound": "C#CCN(C)Cc1ccccc1",
    "Group": "0 (no)"
  },
  {
    "Compound": "C=CCc1ccc(O)c(OC)c1",
    "Group": "0 (no)"
  },
  {
    "Compound": "C[n+]1c2cc(N)ccc2cc2ccc(N)cc21",
    "Group": "1 (yes)"
  },
  {
    "Compound": "O=[N+]([O-])c1cc(C(F)(F)F)c(N2CCCCC2)cc1N1CCCCC1",
    "Group": "0 (no)"
  },
  {
    "Compound": "COc1ccc(C(=O)O)cc1OC",
    "Group": "0 (no)"
  },
  {
    "Compound": "Oc1cc(O)c2c(c1)O[C@H](c1ccc(O)c(O)c1)[C@@H](O)C2",
    "Group": "0 (no)"
  },
  {
    "Compound": "C=C[C@@](C)(O)CCC1C(=C)CCC2[C@@](C)(CO)CCC[C@]12C (some centres undefined)",
    "Group": "0 (no)"
  },
  {
    "Compound": "O=C(CC1NCCN(Cc2ccccc2)C1=O)Nc1ccc(Cl)cc1 (centres undefined)",
    "Group": "0 (no)"
  },
  {
    "Compound": "CSc1nc2ccccc2[nH]1",
    "Group": "0 (no)"
  },
  {
    "Compound": "Oc1cc(O)c2c(c1)OC(c1ccc(O)c(O)c1)C(O)C2 (centres undefined)",
    "Group": "0 (no)"
  },
  {
    "Compound": "CC[N+](CC)(CC)CC",
    "Group": "0 (no)"
  },
  {
    "Compound": "CN1CC(=O)N=C1N",
    "Group": "0 (no)"
  },
  {
    "Compound": "COc1ccc2c(c1)OC1(O)COc3cc(OC)c(OC)cc3C1=C2 (centres undefined)",
    "Group": "0 (no)"
  },
  {
    "Compound": "O=[N+]([O-])c1ccc(N2CCCCC2)nc1N1CCCCC1",
    "Group": "0 (no)"
  },
  {
    "Compound": "COc1cc(CC(=O)O)ccc1O",
    "Group": "0 (no)"
  },
  {
    "Compound": "CC(C)(C)S(=O)(=O)/C(C#N)=C/c1ccc(F)cc1F",
    "Group": "0 (no)"
  },
  {
    "Compound": "COc1ccc(C(=O)CC(=O)O)c2c1C=CC(C)(C)O2",
    "Group": "0 (no)"
  }
]
